procedure summary: qHTS assay for small molecules that induce genotoxicity in human embryonic kidney cells expressing luciferase-tagged ATAD5 - cell viability (AID 651634); also: nearly all actives have a fitted effect of over 25% in size
condition label: HEK293T ATAD5-luc cells viability, CellTiter-Fluor, 15.5 h; series mostly up to 83.3 µM
Records with an inconclusive call do not appear. Active and inactive are the calls of the source. Calls follow the shape of the full dose curve.
Mark one answer only. Choices: label 1 (active), label 0 (inactive)

# count of solved cases: 5
[
  {
    "compound": "CO/N=C(\\C(=O)N[C@@H]1C(=O)N2C(C(=O)O)=C(C[N+]3(C)CCCC3)CS[C@H]12)c1csc(N)n1",
    "group": "label 0"
  },
  {
    "compound": "O=C1C2CC3CC1CC(O)(C3)C2",
    "group": "label 0"
  },
  {
    "compound": "Cc1ccc2nc(-c3ccc(N)cc3)sc2c1S(=O)(=O)O",
    "group": "label 0"
  },
  {
    "compound": "C=C1C(=C/C=C2\\CCC[C@]3(C)[C@@H]([C@H](C)CCCC(C)C)CC[C@@H]23)C[C@@H](O)C[C@@H]1O",
    "group": "label 1"
  },
  {
    "compound": "Nc1c(CC(=O)O)cccc1C(=O)c1ccccc1",
    "group": "label 0"
  }
]

Recorded test outcome, item NCC1CCC(C(=O)O)CC1 (configuration not stated) label 0

# outcome recorded in this test, key = CCCCCCCCCC(=O)NO label 0

What did the test return for C=CCc1cc(S(=O)(=O)c2ccc(O)c(CC=C)c2)ccc1O ? label 0

GET /call?item= O=C(O)/C=C/C(=O)Nc1ccc(S(=O)(=O)Nc2nccs2)cc1 returns the recorded outcome of this test. label 0

---

procedure summary: A CellTox Green Cytotoxicity Assay to monitor cytotoxicity in HEK293 cells - 32 hour (AID 1224881); also: nearly all actives have a fitted effect of over 40% in size; also: potency is read from the fitted curve at half-maximal effect
condition label: CellTox Green fluorescence; series mostly up to 76.8 µM
Results filed as inconclusive are left out. Activity calls are given as the source filed them. Calls follow the shape of the dose curve; as a rule, active = well fitted activation curve with a large enough effect in the repeat runs; inconclusive = weak or mixed curves; inactive = flat fitted curve, though single readings scatter.

[
  {
    "molecule": "CCN(CC)c1ccc(C=O)cc1",
    "Potency": "inactive"
  },
  {
    "molecule": "CN(C/C=C/c1ccccc1)Cc1cccc2ccccc12",
    "Potency": "19 µM (active)"
  },
  {
    "molecule": "CCCCCCCCCCCCCCCCC(C(=O)O)C(O)(CC(=O)O)C(=O)O (centres undefined)",
    "Potency": "inactive"
  },
  {
    "molecule": "Oc1ccc(Cl)cc1C1CCCC1",
    "Potency": "49 µM (active)"
  }
]

---

procedure summary: qHTS assay to identify small molecule agonists of the progesterone receptor (PR) signaling pathway - cell viability counter screen (AID 1346799); also: nearly all actives have a fitted effect of over 45% in size
condition label: PR-UAS-bla HEK293T viability, CellTiter-Glo luminescence, 16 h; series mostly up to 92.4 µM
Records with an inconclusive call do not appear. Calls of active or inactive are those of the source. Calls come from the whole dose curve.
Hello, when you answer, please use one of the following outcomes: TRUE for active, FALSE for inactive

As a guide, the following entries are already answered.
[
  {
    "compound": "N#Cc1ccc(C/C(=N/NC(=O)Nc2ccc(OC(F)(F)F)cc2)c2cccc(C(F)(F)F)c2)cc1",
    "group": "FALSE"
  },
  {
    "compound": "COC(=O)c1ccc([N+](=O)[O-])cc1",
    "group": "FALSE"
  },
  {
    "compound": "O=C(c1ccccc1)c1ccc(Cl)cc1",
    "group": "FALSE"
  },
  {
    "compound": "Nc1cccnc1N",
    "group": "FALSE"
  }
]

For this compound, state the assay outcome: C=C(C)C1CCC(C)CC1O (stereo not drawn) FALSE

Outcome? O=C1c2ccccc2C(=O)c2c(Cl)cccc21 FALSE

---

procedure summary: qHTS assay to identify small molecule antagonists of the estrogen related receptor signaling pathway with the pleiotropic PPARgamma coactivator (PGC) from Tox21 10K library - cell viability counter screen (AID 1224840); also: nearly all actives have a fitted effect of over 40% in size
condition label: PGC/ERR reporter cells viability, CellTiter-Fluor, 17.5 h; series mostly up to 92.4 µM
Results filed as inconclusive are left out. Calls of active or inactive are those of the source. Calls come from the whole dose curve; as a rule, active = well fitted cell-killing curve with a large enough effect in the repeat runs (not every such curve was filed as active); inconclusive = weak or mixed curves, or effect the other way; inactive = no such curve, though single readings can be large or run the other way.
Bench note: report the call from 1 for active, 0 for inactive

[
  {
    "chemical smiles": "C=COCCCC",
    "group": 0
  }
]

Which outcome was assigned to N#Cc1ccc(C/C(=N/NC(=O)Nc2ccc(OC(F)(F)F)cc2)c2cccc(C(F)(F)F)c2)cc1 in this test? 0

Recorded test outcome, item O=C(Cl)c1ccc(Cl)cc1Cl 0

What was the test verdict on Cc1ccc2sc3cccc(C)c3c2c1 ? 0

State the result this test recorded for CCOC(=O)[C@H](C)O . 0

Kindly provide the recorded test outcome for the following molecule: Cn1c(=O)[nH]c2ncn(C)c2c1=O 0

For CN(C/C=C/c1ccccc1)Cc1cccc2ccccc12 , what call appears in the results of this test? 0

What outcome does the record of this test show for CC(C)=NNC(N)=S ? 0

For Oc1ccc(C2(c3ccc(O)c(C4CCCCC4)c3)CCCCC2)cc1C1CCCCC1 , which call appears in the assay record? 1

For C/C=C/C(=O)OCC(C)C , which call appears in the assay record? 0

---

procedure summary: qHTS assay for identifying genotoxic compounds that show differential cytotoxicity against isogenic chicken DT40 cell lines with known DNA damage response pathways - Rad54/Ku70 mutant cell line (AID 743015); also: nearly all actives have a fitted effect of over 60% in size; also: potency is read from the fitted curve at half-maximal effect
condition label: DT40 Rad54/Ku70 mutant viability, CellTiter-Glo, 40 h; series mostly up to 66.8 µM
Records with an inconclusive call do not appear. Calls of active or inactive are those of the source. The call rests on the fitted dose curve; in most records, active means well fitted cell-killing curve with a large enough effect in the repeat runs; inconclusive means weak or mixed curves; inactive means no such curve, though single readings can be large or run the other way.
recorded metric: Potency

[
  {
    "compound": "O=C(Cn1cnnn1)N[C@@H]1C(=O)N2C(C(=O)O)=C(CSc3nncs3)CS[C@H]12",
    "recorded metric": "Potency",
    "reported measurement": "inactive"
  },
  {
    "compound": "c1ccc(-c2ccc(C(c3ccccc3)n3ccnc3)cc2)cc1 (stereo not given)",
    "recorded metric": "Potency",
    "reported measurement": "11.9 µM (active)"
  },
  {
    "compound": "O=C1c2ccccc2-c2n[nH]c3cccc1c23",
    "recorded metric": "Potency",
    "reported measurement": "9.44 µM (active)"
  },
  {
    "compound": "C=C1[C@H](CO)[C@@H](O)C[C@@H]1n1cnc2c(=O)[nH]c(N)nc21",
    "recorded metric": "Potency",
    "reported measurement": "0.0335 µM (active)"
  }
]

Next up:
Fill in: Potency of C[N+](C)(C)CCOP(=O)(O)OP(=O)([O-])OC[C@H]1O[C@@H](n2ccc(N)nc2=O)[C@H](O)[C@@H]1O is ___ inactive

---

procedure summary: qHTS RealTime-Glo MT Cell Viability Assay in HEK293 cells - 8 hour (AID 1224887); also: nearly all actives have a fitted effect of over 50% in size; also: potency is read from the fitted curve at half-maximal effect
condition label: RealTime-Glo luminescence; series mostly up to 76.8 µM
Records with an inconclusive call do not appear. The source made the active and inactive calls. Calls come from the whole dose curve; as a rule, active = well fitted cell-killing curve with a large enough effect in the repeat runs; inconclusive = weak or mixed curves, or effect the other way; inactive = flat fitted curve, though single readings scatter.
recorded metric: Potency

[
  {
    "compound": "Cc1ccc2nc(-c3ccc(N)cc3)sc2c1S(=O)(=O)O",
    "recorded metric": "Potency",
    "reported measurement": "inactive"
  },
  {
    "compound": "O=C1OC(O)C(C(Cl)Cl)=C1Cl (configuration not stated)",
    "recorded metric": "Potency",
    "reported measurement": "inactive"
  },
  {
    "compound": "CN1CCN(c2ccccc2/C=C2\\SCCN(c3ccc(Cl)c(Cl)c3)C2=O)CC1",
    "recorded metric": "Potency",
    "reported measurement": "12.3 µM (active)"
  },
  {
    "compound": "CCCCCCCC/C=C\\CCCCCCCC(=O)N(CCO)CCO",
    "recorded metric": "Potency",
    "reported measurement": "43.5 µM (active)"
  },
  {
    "compound": "CCC1(C)C(=O)N(Cl)C(=O)N1Cl (configuration not stated)",
    "recorded metric": "Potency",
    "reported measurement": "inactive"
  }
]

// Potency lookup, key: CCCCCCCCc1ccc(Nc2ccc(CCCCCCCC)cc2)cc1 inactive

// returns reported Potency for input Cc1cccc2c1ccc1ccccc12 inactive

---

procedure summary: qHTS assay for small molecules that induce genotoxicity in human embryonic kidney cells expressing luciferase-tagged ATAD5 - cell viability (AID 651634); also: nearly all actives have a fitted effect of over 25% in size
condition label: HEK293T ATAD5-luc cells viability, CellTiter-Fluor, 15.5 h; series mostly up to 83.3 µM
Records with an inconclusive call do not appear. Active and inactive are the calls of the source. The call rests on the fitted dose curve.
Hi! Could you answer with just one of these? 1 (active), 0 (inactive)

[
  {
    "molecule": "CCCCCCCC/C=C\\CCCCCCCC(=O)N(CCO)CCO",
    "group": 0
  },
  {
    "molecule": "NCC[C@H](O)C(=O)N[C@@H]1C[C@H](N)[C@@H](O[C@H]2O[C@H](CN)CC[C@H]2N)[C@H](O)[C@H]1O[C@H]1O[C@H](CO)[C@@H](O)[C@H](N)[C@H]1O",
    "group": 0
  },
  {
    "molecule": "CC(C)COC(=O)OCN1C(=O)CN(CCN2CC(=O)N(COC(=O)OCC(C)C)C(=O)C2)CC1=O",
    "group": 0
  }
]

Could you please tell me the result logged for NCCO/C=C/[C@H](N)C(=O)O in this assay? 0

Which outcome did this test record for the molecule CCOC(=O)COc1ccc2c(=O)cc(-c3ccccc3)oc2c1 ? 0
